Reference for the values: paper PMC8349901

- measurement-protocol: Negative-stain TEM of self-assembled nanoribbon morphology
- Type: physicochemical
- condition-description: 0.2 mM peptide, 5% HFIP/water, pH 3–4, room temperature, average of at least 100 measurements
Non-standard residues stand in square brackets, D forms with d. Residues, ends and D or L forms follow the SMILES beside them. Bip = N[C@@H](Cc1ccc(-c2ccccc2)cc1)C(=O)O
# Nanoribbon width listing for each entry below
Record the value in nm, omitting the unit from your answer.

>>> value_measured("CC(=O)N[C@@H](Cc1ccccc1)C(=O)N[C@@H](CCCCN)C(=O)N[C@@H](Cc1ccccc1)C(=O)N[C@@H](CCC(=O)O)C(=O)N[C@@H](Cc1ccccc1)C(=O)N[C@@H](CCCCN)C(=O)N[C@@H](Cc1ccccc1)C(=O)N[C@@H](CCC(=O)O)C(N)=O [Peptide 1, Ac‐(FKFE)2‐NH2]")
8.8
>>> value_measured("CC(=O)N[C@@H](Cc1ccc(-c2ccccc2)cc1)C(=O)N[C@@H](CCCCN)C(=O)N[C@@H](Cc1ccc(-c2ccccc2)cc1)C(=O)N[C@@H](CCC(=O)O)C(=O)N[C@@H](Cc1ccc(-c2ccccc2)cc1)C(=O)N[C@@H](CCCCN)C(=O)N[C@@H](Cc1ccc(-c2ccccc2)cc1)C(=O)N[C@@H](CCC(=O)O)C(N)=O [Peptide 6, Ac‐(BipKBipE)2‐NH2] (Ac-[Bip]K[Bip]E[Bip]K[Bip]E-NH2)")
5.5

Query (compound): CC(=O)N[C@@H](Cc1c[nH]c2ccccc12)C(=O)N[C@@H](CCCCN)C(=O)N[C@@H](Cc1c[nH]c2ccccc12)C(=O)N[C@@H](CCC(=O)O)C(=O)N[C@@H](Cc1c[nH]c2ccccc12)C(=O)N[C@@H](CCCCN)C(=O)N[C@@H](Cc1c[nH]c2ccccc12)C(=O)N[C@@H](CCC(=O)O)C(N)=O [Peptide 3, Ac‐(WKWE)2‐NH2] (Ac-WKWEWKWE-NH2) ; field requested: Nanoribbon width
7.3

Query (compound): CC(=O)N[C@@H](Cc1ccc(-c2ccccc2)cc1)C(=O)N[C@@H](CCCCN)C(=O)N[C@@H](Cc1ccccc1)C(=O)N[C@@H](CCC(=O)O)C(=O)N[C@@H](Cc1ccccc1)C(=O)N[C@@H](CCCCN)C(=O)N[C@@H](Cc1ccccc1)C(=O)N[C@@H](CCC(=O)O)C(N)=O [Peptide 9, Ac‐BipKFEFKFE‐NH2] (Ac-[Bip]KFEFKFE-NH2) ; field requested: Nanoribbon width
2.9
